molecular target: L-lactate dehydrogenase A chain (Homo sapiens, UniProt P00338); experiment: Inhibition of human recombinant carboxy-terminal His-tagged LDHA by UV endpoint assay
pIC50: −log10 of the molar value.
value-kind: pIC50

compound	result
O=C1CC(c2ccccc2)CC(O)=C1Sc1ccc(F)cc1F (stereo unspecified)	< 4.00
CSc1nnc(SC2=C(O)CC(c3ccccc3)CC2=O)s1 (stereo unspecified)	< 4.00
O=C1CC(c2ccccc2)CC(O)=C1Sc1cccc(Br)c1 (stereo unspecified)	< 4.00
O=C1CC(c2ccccc2)CC(O)=C1SCCO (stereo unspecified)	< 4.00
O=C1CC(c2ccccc2)CC(O)=C1Sc1ccc(Br)cc1 (stereo unspecified)	< 4.00

API: the following record is the query input.
// fetch L-lactate dehydrogenase A chain (Homo sapiens, UniProt P00338) pIC50 for Cc1ccc(C)c(SC2=C(O)CC(c3ccccc3)CC2=O)c1 (stereo unspecified)
< 4.19
